Assay details: Stability in mouse liver microsomes
Assay type: in vitro ADME
Cond: mouse, microsomes
Recorded endpoint: remaining at 0 h (%)
Write the number in % without appending the unit.

Problem: What value of remaining at 0 h has been reported for the following compound? O=C(NC1CCC2CCCCC2C1)c1ccc(-c2ccccc2)cc1 (stereo not shown)
Result: 100

---

Assay details: Stability in mouse liver microsomes
Assay type: in vitro ADME
Cond: mouse, microsomes
Procedure: Mouse Liver Microsome Assays. These assays were carried out as detailed previously.
Recorded endpoint: microsomal CLint (µL/min/mg)
Write the number in µL/min/mg without appending the unit.

Problem: What value of microsomal CLint has been reported for the following compound? O=C(NC1CCC2CCCCC2C1)c1ccc(-c2ccccc2)cc1 (stereo not shown) [VBJ104]
Result: 122
